target: T1, full length human GLP-1R with N-terminal FLAG tag and C-terminal GFP tag, on CHO cells (human, UniProt P43220 24-463); assay: flow cytometry, expressing minus parent CHO cells
T1 construct: whole, on cells; the cell line itself is tied to UniProt P43220; also called FLAG-GLP-1R-GFP; CHO-GLP-1R
measure name: Subtraction
Give bare numbers.

Lab note: each binder below needs its Subtraction filled in.
1. GLP1R-221-066 (antibody, V domains shown, IgG) VH: QVQLVESGGGVVQPGRSLRLSCAASGFTFNNYAMHWVRQAPGKGLEWVAVISYDRSNEYYADSVKGRFTISRDNSKNTLYLQMNSLRAEDTAVYYCAKHMSMQEGAVTGEGQAIKEFIAWLVKGRVRADLVGDAFDVWGQGTLVTVSS VL: QSVLTQPPSVSAAPGQKVTISCSGSSSNIGNNYLSWYQQLPGTAPKLLIYENNKRPSGIPDRFSGSKSGTSATLGITGLQTGDEADYYCGIWDRSLSAWVFGGGTKLTVL
2. GLP1R-221-033 (antibody, V domains shown, IgG) VH: QVQLVESGGGVVQPGRSLRLSCAASGFSFSNYAMHWVRQAPGKGLEWVAVISHDRSNKYYADSVKGRFTISRDNSKNTLYLQMNSLRAEDTAVYYCAKHMSMQEGAVTGEGQAAKDFIAWLVKGRVRADLVGDAFDVWGQGTLVTVSS VL: QSVLTQPPSVSAAPGQKVTISCSGSSSNIGNEYVSWYQQLPGTAPKLLIYDNNKRVSGIPDRFSGSKSGTSATLGITGLQTGDEADYYCATWDTSLNVGVFGGGTKLTVL

222000
240000

Data origin: patent US20250340658A1
